Listed here: items and their measured melting point.

Check out these entries, answers already filled in.
# COMPOUND, melting point
measured = [
    ("Cc1ccccc1-c1ccc(C(=O)N2Cc3ccc(C(=O)NCc4ccc(C(=O)c5ccccc5)cc4)n3Cc3ccccc32)cc1C [Example 88]", "148 to 150 °C"),
    ("COc1cc(CNC(=O)c2ccc3n2Cc2ccccc2N(C(=O)c2ccc(-c4ccccc4C)c(C)c2)C3)cc(OC)c1 [Example 20]", "183 to 184 °C"),
    ("O=C(NCCc1ccc(O)cc1)c1ccc2n1Cc1ccccc1N(C(=O)CSc1ccc(Br)cc1)C2 [Example 86]", "168 to 169 °C"),
]

response.value for CC(C)(C)c1ccc(NC(=O)c2ccc3n2Cc2ccccc2N(C(=O)COc2ccc(Cl)cc2)C3)cc1 [Example 102] (field: melting point) = 111 to 113 °C

response.value for COc1cc(CNC(=O)c2ccc3n2Cc2ccccc2N(C(=O)COc2ccc(Cl)cc2C)C3)ccc1O [Example 78] (field: melting point) = 167 to 168 °C

response.value for O=C(NCCc1ccc2c(c1)OCO2)c1ccc2n1Cc1ccccc1N(C(=O)CSc1ccc(Br)cc1)C2 [Example 104] (field: melting point) = 143 °C

response.value for COc1cc(C(=O)N2Cc3ccc(C(=O)NCc4ccc5c(c4)OCCO5)n3Cc3ccccc32)ccc1-c1ccccc1C [Example 64] (field: melting point) = 153 to 155 °C
